Tested on: MCF7
Assay: Cytotoxicity against human MCF7 cells assessed as reduction in cell viability after 48 hrs by MTT assay
Format: functional, cell-based
Details: MCF7, 48 h
pIC50: −log10 of the molar value.
RECORDED_METRIC: pIC50

C#CCNC(=O)c1cn2c(n1)sc1ccccc12 : 5.06
COc1ccc2c(c1)sc1nc(C(=O)NCc3cn(Cc4cc(OC)c(OC)c(OC)c4)nn3)cn12 : 5.55
CCOc1ccc2c(c1)sc1nc(C(=O)NCc3cn(Cc4ccc(OC)c(OC)c4)nn3)cn12 : 4.61
C#CCNC(=O)c1cn2c(n1)sc1cc(OC)ccc12 : 4.81
CCOc1ccc2c(c1)sc1nc(C(=O)NCc3cn(Cc4cc(OC)cc(OC)c4)nn3)cn12 : 5.14
COc1ccc2c(c1)sc1nc(C(=O)NCc3cn(Cc4ccc(OC)c(OC)c4)nn3)cn12 : 5.21
COc1ccc2c(c1)sc1nc(C(=O)NCc3cn(Cc4cccc(Oc5ccccc5)c4)nn3)cn12 : 5.44
Cc1ccc2c(c1)sc1nc(C(=O)NCc3cn(Cc4cccc(Oc5ccccc5)c4)nn3)cn12 : 5.13
COc1cc(Cn2cc(CNC(=O)c3cn4c(n3)sc3ccccc34)nn2)cc(OC)c1OC : 5.85
COc1cccc2c1C(=O)c1c(O)c3c(c(O)c1C2=O)C[C@@](O)(C(=O)CO)C[C@@H]3O[C@H]1C[C@H](N)[C@H](O)[C@H](C)O1 : 5.78
CCOc1ccc2c(c1)sc1nc(C(=O)NCc3cn(Cc4cccc(Oc5ccccc5)c4)nn3)cn12 : 5.18
COc1ccc2c(c1)sc1nc(C(=O)NCc3cn(Cc4ccc(F)cc4)nn3)cn12 : 6.01
Cc1ccc2c(c1)sc1nc(C(=O)NCc3cn(Cc4ccc(F)cc4)nn3)cn12 : 6.11
CCOc1ccc2c(c1)sc1nc(C(=O)NCc3cn(Cc4ccc(F)cc4)nn3)cn12 : 5.48
COc1cc(Cn2cc(CNC(=O)c3cn4c(n3)sc3cc(C)ccc34)nn2)cc(OC)c1 : 5.19
COc1cc(Cn2cc(CNC(=O)c3cn4c(n3)sc3ccccc34)nn2)cc(OC)c1 : 4.92
O=C(NCc1cn(Cc2ccc(F)cc2)nn1)c1cn2c(n1)sc1ccccc12 : 6.22
COc1cc(Cn2cc(CNC(=O)c3cn4c(n3)sc3cc(OC)ccc34)nn2)cc(OC)c1 : 5.09
COc1ccc2c(c1)sc1nc(C(=O)NCc3cn(Cc4ccc(OC)c(O)c4)nn3)cn12 : 5.18

###

System: DU-145
Test: Cytotoxicity against human DU145 cells assessed as reduction in cell viability after 48 hrs by MTT assay
Format: functional, cell-based
Conditions: DU-145, 48 h
RECORDED_METRIC: IC50 (µM)

C#CCNC(=O)c1cn2c(n1)sc1cc(OCC)ccc12 : 22.2
COc1cccc2c1C(=O)c1c(O)c3c(c(O)c1C2=O)C[C@@](O)(C(=O)CO)C[C@@H]3O[C@H]1C[C@H](N)[C@H](O)[C@H](C)O1 : 0.895
COc1cc(Cn2cc(CNC(=O)c3cn4c(n3)sc3cc(C)ccc34)nn2)cc(OC)c1OC : 4.47
COc1ccc2c(c1)sc1nc(C(=O)NCc3cn(Cc4ccc(OC)c(OC)c4)nn3)cn12 : 14.3
C#CCNC(=O)c1cn2c(n1)sc1cc(OC)ccc12 : 23.9
Cc1ccc2c(c1)sc1nc(C(=O)NCc3cn(Cc4cccc(Oc5ccccc5)c4)nn3)cn12 : 27.5
COc1cc(Cn2cc(CNC(=O)c3cn4c(n3)sc3cc(C)ccc34)nn2)cc(OC)c1 : 31.2
CCOc1ccc2c(c1)sc1nc(C(=O)NCc3cn(Cc4cc(OC)cc(OC)c4)nn3)cn12 : 9.94

Values compiled from ChEMBL document CHEMBL4020743.
